System: sh-DNMT1 NCI-H82 cell
Assay text: CellTiter-Glo cell viability, sh-DNMT1 NCI-H82 cell (DNMT1 knocked down)
Format: cell-based, human
Particulars: Homo sapiens, NCI-H82, NCI-H82 with DNMT1 knocked down by shRNA, intracellular ATP, read-out: inhibitory effect on sh-DNMT1 NCI-H82 (IC50)
Property measured: IC50 (µM)

- Compound: "COc1ccc2c(c1OCCCCCCCl)C(C1CCCC1)N1CCc3cc4c(cc3C1=C2)OCO4 (centres unmarked)"
  Endpoint unit: "µM"
  Meas value: 4.12
- Compound: "COc1ccc2c(c1OC)C(=C(Cl)Cl)N1CCc3cc4c(cc3C1=C2)OCO4"
  Endpoint unit: "µM"
  Meas value: 3.96
- Compound: "COc1ccc2c(c1OCCCN1CCCCC1)C(C)N1CCc3cc4c(cc3C1=C2)OCO4 (centres unmarked)"
  Endpoint unit: "µM"
  Meas value: 9.32
- Compound: "CCC(CC)COc1c(OC)ccc2c1C(C(Cl)(Cl)Cl)N1CCc3cc4c(cc3C1=C2)OCO4 (centres unmarked)"
  Endpoint unit: "µM"
  Meas value: 3.14
- Compound: "COc1ccc2c(c1OCCCBr)CN1CCc3cc4c(cc3C1=C2)OCO4"
  Endpoint unit: "µM"
  Meas value: 2.04

[P] COc1ccc2c(c1OC(=O)CC13CC4CC(CC(C4)C1)C3)C(C1CCCC1)N1CCc3cc4c(cc3C1=C2)OCO4 (centres unmarked)
[Q] COc1ccc2c(c1Br)CN1CCc3cc4c(cc3C1=C2)OCO4
Returns: the label, P or Q , whose recorded IC50 is the lower number. Give the label under which the chosen entry appears.
Q
(Q: 4.58 µM, P: 16.5 µM)

---

System: Con-NCI-H82 cell
Assay text: CellTiter-Glo cell viability, Con-NCI-H82 cell (empty-vector control)
Format: cell-based, human
Particulars: Homo sapiens, NCI-H82, NCI-H82 transfected with empty virus vector (control), intracellular ATP, read-out: inhibitory effect on Con-NCI-H82 (IC50)
Property measured: IC50 (nM)

Guide cases for IC50, answers given:
- Compound: "COc1ccc2c(c1N1CCC(NC(=O)OC(C)(C)C)CC1)C(C(Cl)(Cl)Cl)N1CCc3cc4c(cc3C1=C2)OCO4 (centres unmarked) [AB35465]"
  Endpoint unit: "nM"
  IC50: 2690
- Compound: "COc1ccc2c(c1OCCCBr)C(C1CCCC1)N1CCc3cc4c(cc3C1=C2)OCO4 (centres unmarked) [AB35430]"
  Endpoint unit: "nM"
  IC50: 850
- Compound: "COc1ccc2c(c1OCCCBr)C(C(Cl)(Cl)Cl)N1CCc3cc4c(cc3C1=C2)OCO4 (centres unmarked) [AB35466]"
  Endpoint unit: "nM"
  IC50: 1010
- Compound: "CCCCCC1=C2c3cc4c(cc3CCN2C(C2CCCC2)c2c1ccc(OC)c2OC)OCO4 (centres unmarked) [AB35522]"
  Endpoint unit: "nM"
  IC50: 1360
- Compound: "[2H]C1([2H])Cc2cc3c(cc2C2=Cc4ccc(OC)c(OC)c4CN21)OCO3 [AB36476]"
  Endpoint unit: "nM"
  IC50: 1240

[A] COc1ccc2c(c1OCCCF)C(C(Cl)(Cl)Cl)N1CCc3cc4c(cc3C1=C2)OCO4 (centres unmarked) [AB35478]
[B] COc1ccc2c(c1OC)C(CC(C)=O)N1CCc3cc4c(cc3C1=C2)OCO4 (centres unmarked) [AB36472]
[C] CCCCCC1=C2c3cc4c(cc3CCN2C(C)c2c1ccc(OC)c2OC)OCO4 (centres unmarked) [AB35422]
Let's sort these by IC50, smallest first. Go ahead? Note for the reader: the ranking is given by listing the labels in the order requested.
A, C, B
(A: 1230 nM, C: 2320 nM, B: 4280 nM)

Value source: patent US12502386B2
